# pKd annotations
molecular target: NS3 protease S139A/R155K (Hepatitis C virus genotype 1b, UniProt P26663, R1181K/S1165A); construct: The N-terminal domain from full-length NS3 protein corresponding to NS3 protease was expressed and purified; assay: ITC binding to Zn^+2-free NS3 protease, S139A/R155K; conditions: 25°C, 100 mM sodium acetate, 2 mM EDTA, pH 5; relative error 15%
Sequence (P26663 1027-1208 S1165A/R1181K): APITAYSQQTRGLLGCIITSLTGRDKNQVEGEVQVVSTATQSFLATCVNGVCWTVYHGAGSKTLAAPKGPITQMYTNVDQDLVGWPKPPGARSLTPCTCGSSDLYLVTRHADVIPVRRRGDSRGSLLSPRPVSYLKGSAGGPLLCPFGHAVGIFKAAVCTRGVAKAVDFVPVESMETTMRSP
pKd: −log10 of the molar value.
experimental.endpoint: pKd

In [3]: df
Out[3]:
                                   compound  experimental_endpoint  endpoint_value
0  COC(=O)[C@H]1[C@H]2C[C@@H]3c4[nH]c5cc(OC)ccc5c4CCN3C[C@H]2C[C@@H](OC(=O)/C=C/c2cc(OC)c(OC)c(OC)c2)[C@@H]1OC [Compound 6]                    pKd            4.21
1      Nc1c2c(nc3ccccc13)CCCC2 [Compound 5]                    pKd            5.23
2  CC(=O)C1CCC2C3C=CC4=CC(=O)CCC4(C)C3CCC12C (centres unmarked) [Compound 7]                    pKd            4.80
3  COC(=O)Nc1nc2ccc(C(=O)c3cccs3)cc2[nH]1 [Compound 1]                    pKd            5.28
4  CCOc1ccc(Cc2nccc3cc(OCC)c(OCC)cc23)cc1OCC [Compound 8]                    pKd            5.04

* * *

experiment: in vitro; format: cell-based; conditions: human
experimental.endpoint: CC50

>>> df
                               molecule  endpoint_value
0  Nc1c2c(nc3ccccc13)CCCC2 [Compound 5]        > 120 µM

* * *

target: NS3 protease S139A (pseudo-wild-type) (Hepatitis C virus genotype 1b, UniProt P26663, S1165A); construct: The N-terminal domain from full-length NS3 protein corresponding to NS3 protease was expressed and purified; made in house; experiment: ITC binding to Zn^+2-free NS3 protease, pseudo-wild-type S139A; details: 25°C, 100 mM sodium acetate, 2 mM EDTA, pH 5; relative error 15%
Sequence (P26663 1027-1208 S1165A): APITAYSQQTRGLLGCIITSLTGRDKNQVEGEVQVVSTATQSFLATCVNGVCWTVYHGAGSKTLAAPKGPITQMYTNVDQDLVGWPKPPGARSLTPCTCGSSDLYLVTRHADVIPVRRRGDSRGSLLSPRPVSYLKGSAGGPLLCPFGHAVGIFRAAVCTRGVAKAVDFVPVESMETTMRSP
Please note: Kd exactly at 20 µM is F. Only values below 20 µM get T.

>>> df
                                   compound  assigned_category
0  COC(=O)Nc1nc2ccc(C(=O)c3cccs3)cc2[nH]1 [Compound 1]                  T
1  CC(=O)C1CCC2C3C=CC4=CC(=O)CCC4(C)C3CCC12C (centres unmarked) [Compound 7]                  T
2  CCOc1ccc(Cc2nccc3cc(OCC)c(OCC)cc23)cc1OCC [Compound 8]                  F
3      Nc1c2c(nc3ccccc13)CCCC2 [Compound 5]                  T
4  COC(=O)[C@H]1[C@H]2C[C@@H]3c4[nH]c5cc(OC)ccc5c4CCN3C[C@H]2C[C@@H](OC(=O)/C=C/c2cc(OC)c(OC)c(OC)c2)[C@@H]1OC [Compound 6]                  F

* * *

molecular target: NS3 protease wild-type (Zn^+2-free) (Hepatitis C virus genotype 1b); construct: The N-terminal domain from full-length NS3 protein corresponding to NS3 protease was expressed and purified; test: biochemical
Sequence (P26663 1027-1208): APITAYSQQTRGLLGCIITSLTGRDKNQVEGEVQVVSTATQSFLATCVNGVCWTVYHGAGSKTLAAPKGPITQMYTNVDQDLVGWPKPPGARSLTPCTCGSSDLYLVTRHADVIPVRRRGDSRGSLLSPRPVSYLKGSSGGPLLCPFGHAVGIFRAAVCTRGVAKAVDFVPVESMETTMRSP
pKd: −log10 of the molar value.
Entries and their measured pKd follow.
experimental.endpoint: pKd

                                   compound  endpoint_value
0  COC(=O)[C@H]1[C@H]2C[C@@H]3c4[nH]c5cc(OC)ccc5c4CCN3C[C@H]2C[C@@H](OC(=O)/C=C/c2cc(OC)c(OC)c(OC)c2)[C@@H]1OC            4.40
1  CCOc1ccc(Cc2nccc3cc(OCC)c(OCC)cc23)cc1OCC            4.51
2    COC(=O)Nc1nc2ccc(C(=O)c3cccs3)cc2[nH]1            5.72
3                   Nc1c2c(nc3ccccc13)CCCC2            5.77
4  CC[C@@]1(O)C(=O)OCc2c1cc1n(c2=O)Cc2cc3ccccc3nc2-1            5.60
5  CC(=O)C1CCC2C3C=CC4=CC(=O)CCC4(C)C3CCC12C (stereo not drawn)            4.80
